Ref: paper PMC6001238

Test system: L1210, CEM and HeLa cell lines
Test: Cytostatic activity, average or summary over L1210, CEM and HeLa
Assay type: cell-based
Settings: average of L1210, CEM and HeLa; read-out: Toxicity (IC50) Average
pIC50: −log10 of the molar value.
Classify as follows. Reported pIC50 greater than or equal to 4: true. Reported pIC50 below: false.

Would you please look over these solved cases?
CN[C@H](CC(C)C)C(=O)N[C@H]1C(=O)N[C@@H](CC(N)=O)C(=O)N[C@H]2C(=O)N[C@H]3C(=O)N[C@H](C(=O)N[C@H](C(=O)NCC(=O)Nc4cc(C)cc(C)c4)c4cc(O)cc(O)c4-c4cc3ccc4O)[C@H](O)c3ccc(c(Cl)c3)Oc3cc2cc(c3O[C@@H]2O[C@H](CO)[C@@H](O)[C@H](O)[C@H]2O[C@H]2C[C@](C)(N)[C@H](O)[C@H](C)O2)Oc2ccc(cc2Cl)[C@H]1O :: false
CN[C@H](CC(C)C)C(=O)N[C@H]1C(=O)N[C@@H](CC(N)=O)C(=O)N[C@H]2C(=O)N[C@H]3C(=O)N[C@H](C(=O)N[C@H](C(=O)NCC(=O)Nc4ccc(C)cc4C)c4cc(O)cc(O)c4-c4cc3ccc4O)[C@H](O)c3ccc(c(Cl)c3)Oc3cc2cc(c3O[C@@H]2O[C@H](CO)[C@@H](O)[C@H](O)[C@H]2O[C@H]2C[C@](C)(N)[C@H](O)[C@H](C)O2)Oc2ccc(cc2Cl)[C@H]1O :: false

Ask | Reported pIC50 at or above 4? CNC(CC(C)C)C(=O)NC1C(=O)NC(CC(N)=O)C(=O)NC2C(=O)NC3C(=O)NC(C(=O)NC(C(=O)NCCCNC(=O)c4ccc5ccccc5n4)c4cc(O)cc(O)c4-c4cc3ccc4O)C(O)c3ccc(c(Cl)c3)Oc3cc2cc(c3OC2OC(CO)C(O)C(O)C2OC2CC(C)(N)C(O)C(C)O2)Oc2ccc(cc2Cl)C1O (centres unmarked)
Reply | false

----------
System: MRSA KS2
Experiment: MIC, broth microdilution, MRSA KS2
Assay type: cell-based, Staphylococcus aureus
Settings: Staphylococcus aureus MRSA KS2; read-out: MIC
Description: The minimum inhibitory concentration (MIC) was determined using the broth microdilution method according to the antimicrobial susceptibility testing standards of the clinical and laboratory standards institute ([Clinical and Laboratory Standards Institute [CLSI], 2012]). Ultrapure water and non-inoculated broth were used as controls. In one case, a final concentration of 10 μM vancomycin was included with the vancomycin analog or control antibiotic.
ASSAY READOUT: MIC (µM)
Express your answer in µM, writing the number without its unit.

Would you please look over these solved cases?
CCOc1ccc(-c2ccc(NC(=O)CNC(=O)C3NC(=O)C4NC(=O)C(NC(=O)C5NC(=O)C(CC(N)=O)NC(=O)C(NC(=O)C(CC(C)C)NC)C(O)c6ccc(c(Cl)c6)Oc6cc5cc(c6OC5OC(CO)C(O)C(O)C5OC5CC(C)(N)C(O)C(C)O5)Oc5ccc(cc5Cl)C4O)c4ccc(O)c(c4)-c4c(O)cc(O)cc43)cc2)cc1 (centres unmarked) :: 0.20
CCCCCn1cc(-c2ccc(NC(=O)CNC(=O)C3NC(=O)C4NC(=O)C(NC(=O)C5NC(=O)C(CC(N)=O)NC(=O)C(NC(=O)C(CC(C)C)NC)C(O)c6ccc(c(Cl)c6)Oc6cc5cc(c6OC5OC(CO)C(O)C(O)C5OC5CC(C)(N)C(O)C(C)O5)Oc5ccc(cc5Cl)C4O)c4ccc(O)c(c4)-c4c(O)cc(O)cc43)cc2)nn1 (centres unmarked) :: 0.10
CN[C@H](CC(C)C)C(=O)N[C@H]1C(=O)N[C@@H](CC(N)=O)C(=O)N[C@H]2C(=O)N[C@H]3C(=O)N[C@H](C(=O)N[C@H](C(=O)NCC(=O)Nc4ccc(Nc5ccccc5)cc4)c4cc(O)cc(O)c4-c4cc3ccc4O)[C@H](O)c3ccc(c(Cl)c3)Oc3cc2cc(c3O[C@@H]2O[C@H](CO)[C@@H](O)[C@H](O)[C@H]2O[C@H]2C[C@](C)(N)[C@H](O)[C@H](C)O2)Oc2ccc(cc2Cl)[C@H]1O :: 0.39

Now consider the entry below.
Ask | // query MIC value for entry `CCCCC#Cc1ccc(/C=C/C(=O)NCCNC(=O)[C@H]2NC(=O)[C@H]3NC(=O)[C@H](NC(=O)[C@@H]4NC(=O)[C@H](CC(N)=O)NC(=O)[C@H](NC(=O)[C@@H](CC(C)C)NC)[C@H](O)c5ccc(c(Cl)c5)Oc5cc4cc(c5O[C@@H]4O[C@H](CO)[C@@H](O)[C@H](O)[C@H]4O[C@H]4C[C@](C)(N)[C@H](O)[C@H](C)O4)Oc4ccc(cc4Cl)[C@H]3O)c3ccc(O)c(c3)-c3c(O)cc(O)cc32)cc1`
Reply | 0.20

----------
System: human cervix carcinoma (HeLa) cells
Test: Cytostatic activity, HeLa cell proliferation
Assay type: cell-based
Conditions: mean ± SD of three experiments; highest concentration tested 250 µM; 4 days; read-out: Toxicity (IC50) HeLa
Form field: IC50 (one value per entry).
Enter your answer as a number in µM; do not include the unit.

Ask | Which value of IC50 has been reported for CNC(CC(C)C)C(=O)NC1C(=O)NC(CC(N)=O)C(=O)NC2C(=O)NC3C(=O)NC(C(=O)NC(C(=O)NCC(=O)Nc4ccc(C(=O)c5ccccc5)cc4)c4cc(O)cc(O)c4-c4cc3ccc4O)C(O)c3ccc(c(Cl)c3)Oc3cc2cc(c3OC2OC(CO)C(O)C(O)C2OC2CC(C)(N)C(O)C(C)O2)Oc2ccc(cc2Cl)C1O (centres unmarked) [Vanc-88] in the records?
Reply | 98

Ask | Bench note: what IC50 did CN[C@H](CC(C)C)C(=O)N[C@H]1C(=O)N[C@@H](CC(N)=O)C(=O)N[C@H]2C(=O)N[C@H]3C(=O)N[C@H](C(=O)N[C@H](C(=O)NCCNC(=O)/C=C/c4ccc(NS(=O)(=O)c5ccc(Cl)cc5Cl)cc4)c4cc(O)cc(O)c4-c4cc3ccc4O)[C@H](O)c3ccc(c(Cl)c3)Oc3cc2cc(c3O[C@@H]2O[C@H](CO)[C@@H](O)[C@H](O)[C@H]2O[C@H]2C[C@](C)(N)[C@H](O)[C@H](C)O2)Oc2ccc(cc2Cl)[C@H]1O [Vanc-64] show?
Reply | 102

----------
Each item that follows carries a reported MIC.
System: MRSA KS2
Experiment: MIC, broth microdilution, MRSA KS2
Assay type: cell-based, Staphylococcus aureus
Details: Staphylococcus aureus MRSA KS2; read-out: MIC
Method: The minimum inhibitory concentration (MIC) was determined using the broth microdilution method according to the antimicrobial susceptibility testing standards of the clinical and laboratory standards institute ([Clinical and Laboratory Standards Institute [CLSI], 2012]). Ultrapure water and non-inoculated broth were used as controls. In one case, a final concentration of 10 μM vancomycin was included with the vancomycin analog or control antibiotic.
Please reply with the bare figure in µM and do not write the unit itself.

Worked cases, MIC given:
CN[C@H](CC(C)C)C(=O)N[C@H]1C(=O)N[C@@H](CC(N)=O)C(=O)N[C@H]2C(=O)N[C@H]3C(=O)N[C@H](C(=O)N[C@H](C(=O)NCCNC(=O)/C=C/c4ccc(NS(=O)(=O)c5ccc(C)cc5)cc4)c4cc(O)cc(O)c4-c4cc3ccc4O)[C@H](O)c3ccc(c(Cl)c3)Oc3cc2cc(c3O[C@@H]2O[C@H](CO)[C@@H](O)[C@H](O)[C@H]2O[C@H]2C[C@](C)(N)[C@H](O)[C@H](C)O2)Oc2ccc(cc2Cl)[C@H]1O [Vanc-55] :: 0.20
CCCCCCc1ccc(NC(=O)CNC(=O)[C@H]2NC(=O)[C@H]3NC(=O)[C@H](NC(=O)[C@@H]4NC(=O)[C@H](CC(N)=O)NC(=O)[C@H](NC(=O)[C@@H](CC(C)C)NC)[C@H](O)c5ccc(c(Cl)c5)Oc5cc4cc(c5O[C@@H]4O[C@H](CO)[C@@H](O)[C@H](O)[C@H]4O[C@H]4C[C@](C)(N)[C@H](O)[C@H](C)O4)Oc4ccc(cc4Cl)[C@H]3O)c3ccc(O)c(c3)-c3c(O)cc(O)cc32)cc1 [Vanc-75] :: 0.20
CN[C@H](CC(C)C)C(=O)N[C@H]1C(=O)N[C@@H](CC(N)=O)C(=O)N[C@H]2C(=O)N[C@H]3C(=O)N[C@H](C(=O)N[C@H](C(=O)NCC(=O)Nc4ccc(NS(=O)(=O)c5ccccc5)cc4)c4cc(O)cc(O)c4-c4cc3ccc4O)[C@H](O)c3ccc(c(Cl)c3)Oc3cc2cc(c3O[C@@H]2O[C@H](CO)[C@@H](O)[C@H](O)[C@H]2O[C@H]2C[C@](C)(N)[C@H](O)[C@H](C)O2)Oc2ccc(cc2Cl)[C@H]1O [Vanc-60] :: 0.39
CCCCc1ccc(NC(=O)CNC(=O)[C@H]2NC(=O)[C@H]3NC(=O)[C@H](NC(=O)[C@@H]4NC(=O)[C@H](CC(N)=O)NC(=O)[C@H](NC(=O)[C@@H](CC(C)C)NC)[C@H](O)c5ccc(c(Cl)c5)Oc5cc4cc(c5O[C@@H]4O[C@H](CO)[C@@H](O)[C@H](O)[C@H]4O[C@H]4C[C@](C)(N)[C@H](O)[C@H](C)O4)Oc4ccc(cc4Cl)[C@H]3O)c3ccc(O)c(c3)-c3c(O)cc(O)cc32)cc1 [Vanc-39] :: 0.20
CN[C@H](CC(C)C)C(=O)N[C@H]1C(=O)N[C@@H](CC(N)=O)C(=O)N[C@H]2C(=O)N[C@H]3C(=O)N[C@H](C(=O)N[C@H](C(=O)NCC(=O)Nc4ccc(Cl)cn4)c4cc(O)cc(O)c4-c4cc3ccc4O)[C@H](O)c3ccc(c(Cl)c3)Oc3cc2cc(c3O[C@@H]2O[C@H](CO)[C@@H](O)[C@H](O)[C@H]2O[C@H]2C[C@](C)(N)[C@H](O)[C@H](C)O2)Oc2ccc(cc2Cl)[C@H]1O [Vanc-44] :: 0.78

Ask | Reported MIC, compound CNC(CC(C)C)C(=O)NC1C(=O)NC(CC(N)=O)C(=O)NC2C(=O)NC3C(=O)NC(C(=O)NC(C(=O)NCCCNC(=O)c4ccc5cc(NS(=O)(=O)c6ccc(C)cc6)ccc5c4)c4cc(O)cc(O)c4-c4cc3ccc4O)C(O)c3ccc(c(Cl)c3)Oc3cc2cc(c3OC2OC(CO)C(O)C(O)C2OC2CC(C)(N)C(O)C(C)O2)Oc2ccc(cc2Cl)C1O (stereo not shown) [Vanc-65] : ____
Reply | 0.20

Ask | Find the recorded MIC belonging to CN[C@H](CC(C)C)C(=O)N[C@H]1C(=O)N[C@@H](CC(N)=O)C(=O)N[C@H]2C(=O)N[C@H]3C(=O)N[C@H](C(=O)N[C@H](C(=O)NCCNC(=O)/C=C/c4ccc(OC)cc4)c4cc(O)cc(O)c4-c4cc3ccc4O)[C@H](O)c3ccc(c(Cl)c3)Oc3cc2cc(c3O[C@@H]2O[C@H](CO)[C@@H](O)[C@H](O)[C@H]2O[C@H]2C[C@](C)(N)[C@H](O)[C@H](C)O2)Oc2ccc(cc2Cl)[C@H]1O [Vanc-36] and report it.
Reply | 0.39

Ask | Quick check: MIC of C#Cc1ccc(C=Cc2ccc(NC(=O)CNC(=O)C3NC(=O)C4NC(=O)C(NC(=O)C5NC(=O)C(CC(N)=O)NC(=O)C(NC(=O)C(CC(C)C)NC)C(O)c6ccc(c(Cl)c6)Oc6cc5cc(c6OC5OC(CO)C(O)C(O)C5OC5CC(C)(N)C(O)C(C)O5)Oc5ccc(cc5Cl)C4O)c4ccc(O)c(c4)-c4c(O)cc(O)cc43)cc2)cc1 (stereo not shown) [Vanc-R] ?
Reply | 0.39

Ask | Can you look up the measured MIC of CNC(CC(C)C)C(=O)NC1C(=O)NC(CC(N)=O)C(=O)NC2C(=O)NC3C(=O)NC(C(=O)NC(C(=O)NCCCNC(=O)c4ccc5cc(NS(=O)(=O)c6ccc(C(C)C)cc6)ccc5c4)c4cc(O)cc(O)c4-c4cc3ccc4O)C(O)c3ccc(c(Cl)c3)Oc3cc2cc(c3OC2OC(CO)C(O)C(O)C2OC2CC(C)(N)C(O)C(C)O2)Oc2ccc(cc2Cl)C1O (stereo not shown) [Vanc-66] for me?
Reply | 0.39

Ask | Reported MIC for CN[C@H](CC(C)C)C(=O)N[C@H]1C(=O)N[C@@H](CC(N)=O)C(=O)N[C@H]2C(=O)N[C@H]3C(=O)N[C@H](C(=O)N[C@H](C(=O)NCC(=O)Nc4ccc(-c5cn(-c6ccccc6)nn5)cc4)c4cc(O)cc(O)c4-c4cc3ccc4O)[C@H](O)c3ccc(c(Cl)c3)Oc3cc2cc(c3O[C@@H]2O[C@H](CO)[C@@H](O)[C@H](O)[C@H]2O[C@H]2C[C@](C)(N)[C@H](O)[C@H](C)O2)Oc2ccc(cc2Cl)[C@H]1O [Vanc-77] : what is it?
Reply | 0.20
